Give pIC50 for every item shown.
Biological target: T1, biotinylated dimeric human CD48 protein expressed as a fusion with mouse IgG2a Fc (human, biotinylated)
T1 construct: also called bio-hCD48-mFc; Dimeric human CD48-mFc
T1 chain: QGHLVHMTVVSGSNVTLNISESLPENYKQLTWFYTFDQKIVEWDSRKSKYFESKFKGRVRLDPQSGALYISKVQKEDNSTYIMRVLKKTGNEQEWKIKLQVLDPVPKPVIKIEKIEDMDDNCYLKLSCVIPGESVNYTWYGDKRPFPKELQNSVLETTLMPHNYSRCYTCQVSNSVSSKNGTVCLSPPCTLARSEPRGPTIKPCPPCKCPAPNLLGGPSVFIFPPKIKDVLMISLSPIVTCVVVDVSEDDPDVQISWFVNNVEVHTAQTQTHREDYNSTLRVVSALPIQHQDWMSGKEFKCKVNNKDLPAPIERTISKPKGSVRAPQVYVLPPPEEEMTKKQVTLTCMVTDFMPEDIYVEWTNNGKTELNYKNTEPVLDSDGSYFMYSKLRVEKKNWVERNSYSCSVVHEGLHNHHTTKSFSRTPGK
Assay: competition ELISA; blocks bio-hCD48-mFc binding to coated h2B4-mFc
By convention, pIC50 is the negative base-10 log of a molar concentration.

**Q:** Item H4H1779P (antibody, human IgG4, V domains shown, Human IgG4 Fc (H4H)) VH: QVQLVESGGGVVQPGRSLRLSCAASGFTFSNYGMHWVRQAPGKGLEWVAVIWYDESSKHYADSVKGRFTISRDNSQNTLYLQMTSLRAEDTAVYYCARDRWTYSHYFEYWGQGTLVTVSS VL: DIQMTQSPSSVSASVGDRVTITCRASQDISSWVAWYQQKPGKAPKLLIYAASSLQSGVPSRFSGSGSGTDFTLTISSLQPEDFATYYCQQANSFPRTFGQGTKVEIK has what recorded pIC50?
**A:** 10.80

**Q:** Item H4H1771P (antibody, human IgG4, V domains shown, Human IgG4 Fc (H4H)) VH: QVQLVQSGTEVKKPGASVKVSCKVSGYTLIDLSIHWVRQAPGEGLEWMGGFDPEESETIYAQKFQGRVTMTEDTSTDTAYMELSSLRSEDTAVYYCVTEPIFGILIHESWGQGTLVTVSS VL: DIVMTQTPLSSPVTLGQPASISCRSSHSPVHSNGHTYLSWLQQRPGQPPRILIYKISRRFSGVPDRFSGSGAGTDFTLKISRVETEDVGIYYCMQASQFPWTFGQGTKVEIK has what recorded pIC50?
**A:** 11.00
